System: DU-145 prostate
Assay: NCI tumour cell line growth inhibition, 48 h
Give measured TGI for each item. Keep answers brief.

Worked examples follow.
{"Smiles input": "Cc1nc2sc3ccccc3n2c(=O)c1N=Nc1ccc(Cl)cc1", "Experimental system": "DU-145 prostate", "Measurement name": "TGI", "Data value": "> 100 µM"}
{"Smiles input": "CN1COCc2c1ccc1cc3ccc4c(c3nc21)COCN4S(C)(=O)=O", "Experimental system": "DU-145 prostate", "Measurement name": "TGI", "Data value": "> 100 µM"}

Qu. Could you please provide reported TGI for COC(=O)C1=C(C)NC(C)=C(C(=O)OC)C1c1nc2sccn2c1[N+](=O)[O-] ? Thanks!
Ans. > 100 µM

###

System: K-562 leukemia
Assay: NCI tumour cell line growth inhibition, 48 h
Exercise: for every item that follows, state its recorded TGI.

{"Compound": "O=C(O)C1C(Br)(c2ccccc2)C1(Br)c1ccccc1 (stereo unspecified)", "TGI": "> 100 µM"}
{"Compound": "Nc1ccn(C2CCC(CO)O2)c(=O)n1 (stereo unspecified)", "TGI": "> 1000 µM"}
{"Compound": "O=C1[C@@H]2C(c3ccccc3F)=NO[C@@H]2C(=O)N1c1ccc(Cc2ccc(N3C(=O)[C@H]4C(c5ccccc5F)=NO[C@H]4C3=O)cc2)cc1", "TGI": "> 100 µM"}

Quick request: TGI for each listed item, please.
1. CCC(=O)ONC(=O)Cn1ccc([N+](=O)[O-])n1
2. COc1ccc(OC)c2c(C(=O)O)c(Cc3ccccc3)ccc12
3. CC1(C)[C@@H](OC(N)=O)[C@H]2O[C@H]2[C@]2(C=O)[C@H]3CC[C@]4(C)[C@@H](c5ccc(=O)oc5)[C@@H](Cl)C[C@]4(O)C3=CC[C@@H]12

Ans.
["> 100 µM", "> 100 µM", "0.0253 µM"]

###

What TGI was measured for each of the following?
Test system: MALME-3M melanoma
Assay: NCI tumour cell line growth inhibition, 48 h

Known TGI results, listed for orientation:
{"Compound": "CC12CCC(O)CC1CCC1C2CCC2(C)C(C(=O)CC(O)C(F)(F)F)CCC12 (centres undefined)", "TGI": "> 100 µM"}
{"Compound": "COc1nc2nccnc2c(=O)n1C", "TGI": "> 10 µM"}
{"Compound": "CC(=O)NC1c2ccccc2C(C)(C)C12CCC1(CC2)OCCO1 (centres undefined)", "TGI": "> 100 µM"}
{"Compound": "Cc1ccc2c(c1)C(=O)C1(C2)Cc2cccc(C)c2C1=O (centres undefined)", "TGI": "> 100 µM"}
{"Compound": "Nc1ccn(C2CCC(CO)O2)c(=O)n1 (centres undefined)", "TGI": "> 1000 µM"}
{"Compound": "CCn1c(-c2ccc(OC(C)=O)cc2)c(C)c2cc(OC(C)=O)ccc21", "TGI": "76 µM"}

Here are 3 compounds. What values of TGI were reported for them?
1. CCOC(=O)NC(Nc1cccc(C(F)(F)F)c1)(C(F)(F)F)C(F)(F)F
2. CC(C(O)Cc1ccccc1)N(C)N=Nc1ccc([N+](=O)[O-])cc1 (centres undefined)
3. O=c1c2ccccc2c(=O)c2c1[nH]c1c(-c3ccccc3)c(-c3ccccc3)c(=O)c12

Ans.
1. > 100 µM
2. 43.3 µM
3. 8.19 µM
